Reference source for all entries: patent US20160338989A1

- TEST METHOD NOTES: physchem
- CONDITION INFO: aqueous medium, aqueous buffer
Where a name gives a salt, the structure may show the parent alone.
PROPERTY MEASURED: solubility

- CCCCc1oc2ccc(NS(C)(=O)=O)cc2c1C(=O)c1ccc(OCCCN(CCCC)CCCC)cc1 [dronedarone hydrochloride]: 1000 to 2000 µg/mL
